- assayed_target: T1, human TIGIT-Fc (rhTIGIT-Fc, R&D Systems) (human, UniProt Q495A1 22-141)
- T1 construct: Bought protein; also called human TIGIT (rhTIGIT-Fc); not shown: Fc part of the bought fusion protein
- T1 sequence: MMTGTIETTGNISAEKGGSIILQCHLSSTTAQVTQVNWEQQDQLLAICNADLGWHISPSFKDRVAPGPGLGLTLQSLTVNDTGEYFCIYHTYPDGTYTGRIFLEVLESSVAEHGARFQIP
- assay_comment: SPR (BIAcore T200), antibody immobilised on CM5 chip, TIGIT-Fc flowed
endpoint_name: koff (s⁻¹)
The reply should contain only the number, in s⁻¹.

# example entries with known answers
{"columns": ["binder", "u", "koff"],
 "data": [
  ["F04-10-IgG1 (antibody, V domains shown, also called antibody based on the F04-10 clones) VH: EVQLLESGGGLVQPGGSLRLSCAASGFTFSSYYMSWVRQAPGKGLEWVSSIGSGSPSSTYYADSVKGRFTISRDNSKNTLYLQMNSLRAEDTAVYYCARSSYSGGNGYYYYAYAFDYWGQGTLVTVSS VL: EIVLTQSPGTLSLSPGERATLSCRASQSVSSSYLAWYQQKPGQAPRLLIYGASSRATGIPDRFSGSGSGTDFTLTISRLEPEDFAVYYCQQGYHRYATFGQGTKVEIK", "s⁻¹", "3.76e-05"],
  ["10A7 antibody (antibody, V domains shown) VH: EVQLVESGGGLTQPGKSLKLSCEASGFTFSSFTMHWVRQSPGKGLEWVAFIRSGSGIVFYADAVRGRFTISRDNAKNLLFLQMNDLKSEDTAMYYCARRPLGHNTFDSWGQGTLVTVSS VL: DIVMTQSPSSLAVSPGEKVTMTCKSSQSLYYSGVKENLLAWYQQKPGQSPKLLIYYASIRFTGVPDRFTGSGSGTDYTLTITSVQAEDMGQYFCQQGINNPLTFGDGTKLEIKR", "s⁻¹", 0.000193]
]}

koff recorded for this binder, S64-39-IgG4 (antibody, V domains shown, also called 564-39-IgG4 [sic]) VH: EVQLLESGGGLVQPGGSLRLSCAASGFTFSNYAMSWVRQAPGKGLEWVSGISPSGSSIYYADSVQGRFTISRDNSKNTLYLQMNSLRAEDTAVYYCAKAIRTCSLSHCYYYYGMDVWGQGTLVTVSS VL: QSVLTQPPSASGTPGQRVTISCSSSSSNIGSNAVNWYQQLPGTAPKLLIYYDNQRPSGVPDRFSGSKSGTSASLAISGLRSEDEADYYCATWDYSLSGYVFGGGTKLTVL , is 3.23e-05

koff recorded for this binder, S64-39-IgG1 (antibody, V domains shown, also called 564-39-IgG1 [sic]; antibody based on the S64-39 clones) VH: EVQLLESGGGLVQPGGSLRLSCAASGFTFSNYAMSWVRQAPGKGLEWVSGISPSGSSIYYADSVQGRFTISRDNSKNTLYLQMNSLRAEDTAVYYCAKAIRTCSLSHCYYYYGMDVWGQGTLVTVSS VL: QSVLTQPPSASGTPGQRVTISCSSSSSNIGSNAVNWYQQLPGTAPKLLIYYDNQRPSGVPDRFSGSKSGTSASLAISGLRSEDEADYYCATWDYSLSGYVFGGGTKLTVL , is 4.41e-05
